Values were extracted from PubChem BioAssay (NCI).

Answer each item with its documented GI50.
Tested on: HOP-62 NSCLC
experiment-description: NCI tumour cell line growth inhibition, 48 h

I am curious: what GI50 value has been reported for Cc1ccc2oc(=O)cc(C3c4ccc([nH]4)C(c4cc(=O)oc5ccc(C)cc45)c4ccc([nH]4)C(c4cc(=O)oc5ccc(C)cc45)c4ccc([nH]4)C(c4cc(=O)oc5ccc(C)cc45)c4ccc3[nH]4)c2c1 (stereo not given) ?
0.0463 µM

I am curious: what GI50 value has been reported for O=C1/C(=C/c2ccc(C(F)(F)F)cc2)COc2ccc(O)cc21 ?
12.8 µM

I am curious: what GI50 value has been reported for CCN1CCN(c2nc(C)cc(N(CCCNc3ccnc4cc(Cl)ccc34)Cc3ccco3)n2)CC1 ?
3.22 µM

I am curious: what GI50 value has been reported for CN(C)CCN1C(=O)c2cccc3c(-c4ccc5ncn(C6CCCCC6)c5c4)ccc(c23)C1=O ?
1.69 µM

I am curious: what GI50 value has been reported for COc1ccc(Cn2cc3c(c2-c2ccccc2)CCc2cncnc2-3)cc1 ?
12 µM
